- experimental.target: UniProt:A0A1D8PTJ0
readout.name: pKd
Reminder that pKd is minus the log10 of a molar concentration.

UniProt:A0A1D8PTJ0 / pKd / `Nc1ncnc2c1ncn2[C@@H]1O[C@H](COP(=O)(O)OP(=O)(O)OP(=O)(O)O)[C@@H](O)[C@H]1O` : value?
5.88
